target-entity: Epac1 (Homo sapiens)
Construct: made in house
Sequence (O95398 150-881 isoform O95398-3): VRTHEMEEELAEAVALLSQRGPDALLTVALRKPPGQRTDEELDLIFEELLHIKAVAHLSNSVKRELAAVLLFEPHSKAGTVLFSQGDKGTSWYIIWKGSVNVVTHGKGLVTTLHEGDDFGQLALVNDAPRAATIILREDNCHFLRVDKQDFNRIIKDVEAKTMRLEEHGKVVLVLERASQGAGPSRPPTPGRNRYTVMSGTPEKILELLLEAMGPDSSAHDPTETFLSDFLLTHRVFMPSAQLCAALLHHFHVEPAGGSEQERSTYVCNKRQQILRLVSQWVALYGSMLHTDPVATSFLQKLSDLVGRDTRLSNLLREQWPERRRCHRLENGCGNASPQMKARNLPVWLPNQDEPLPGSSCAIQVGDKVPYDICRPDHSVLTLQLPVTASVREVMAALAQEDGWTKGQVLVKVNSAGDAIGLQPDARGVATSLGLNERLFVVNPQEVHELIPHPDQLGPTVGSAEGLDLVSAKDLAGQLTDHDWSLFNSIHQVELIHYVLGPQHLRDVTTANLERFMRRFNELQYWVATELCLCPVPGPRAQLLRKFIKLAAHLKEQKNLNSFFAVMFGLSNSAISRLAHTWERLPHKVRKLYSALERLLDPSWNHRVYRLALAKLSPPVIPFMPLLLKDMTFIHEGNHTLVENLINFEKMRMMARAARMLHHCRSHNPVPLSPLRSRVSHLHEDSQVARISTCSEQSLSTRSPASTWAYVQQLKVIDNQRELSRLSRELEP
measurement-description: Epac activation assay, Epac1
Format: biochemical
condition-parameters: 60 μM compound
property-label: kobs (s⁻¹)
Return type: number; implicit unit s⁻¹.

Query: kobs; subject: Nc1ncnc2c1ncn2[C@@H]1O[C@@H]2COP(=O)(O)O[C@H]2[C@H]1O [cAMP, reference compound]
0.000796

Query: kobs; subject: COC1C2OP(=O)(O)OCC2OC1n1c(Sc2ccc(Cl)cc2)nc2c(N)ncnc21 [D-007, 8-pCPT-2′-O-Me-cAMP, reference compound]
0.00363

Query: kobs; subject: Cc1ccc(CSc2nc3c(N)ncnc3n2[C@@H]2O[C@@H]3CO[P@](O)(=S)O[C@H]3[C@H]2O)cc1 [S-230, Sp-8-pMeBnT-cAMPS]
0.000156

Query: kobs; subject: Nc1ncnc2c1nc(SCc1ccccc1)n2[C@@H]1O[C@@H]2CO[P@](O)(=S)O[C@H]2[C@H]1O [S-220, Sp-8-BnT-cAMPS]
0.000336

----------
target-entity: Epac2^fl (Mus musculus)
Sequence (Q9EQZ6 1-993 isoform Q9EQZ6-3): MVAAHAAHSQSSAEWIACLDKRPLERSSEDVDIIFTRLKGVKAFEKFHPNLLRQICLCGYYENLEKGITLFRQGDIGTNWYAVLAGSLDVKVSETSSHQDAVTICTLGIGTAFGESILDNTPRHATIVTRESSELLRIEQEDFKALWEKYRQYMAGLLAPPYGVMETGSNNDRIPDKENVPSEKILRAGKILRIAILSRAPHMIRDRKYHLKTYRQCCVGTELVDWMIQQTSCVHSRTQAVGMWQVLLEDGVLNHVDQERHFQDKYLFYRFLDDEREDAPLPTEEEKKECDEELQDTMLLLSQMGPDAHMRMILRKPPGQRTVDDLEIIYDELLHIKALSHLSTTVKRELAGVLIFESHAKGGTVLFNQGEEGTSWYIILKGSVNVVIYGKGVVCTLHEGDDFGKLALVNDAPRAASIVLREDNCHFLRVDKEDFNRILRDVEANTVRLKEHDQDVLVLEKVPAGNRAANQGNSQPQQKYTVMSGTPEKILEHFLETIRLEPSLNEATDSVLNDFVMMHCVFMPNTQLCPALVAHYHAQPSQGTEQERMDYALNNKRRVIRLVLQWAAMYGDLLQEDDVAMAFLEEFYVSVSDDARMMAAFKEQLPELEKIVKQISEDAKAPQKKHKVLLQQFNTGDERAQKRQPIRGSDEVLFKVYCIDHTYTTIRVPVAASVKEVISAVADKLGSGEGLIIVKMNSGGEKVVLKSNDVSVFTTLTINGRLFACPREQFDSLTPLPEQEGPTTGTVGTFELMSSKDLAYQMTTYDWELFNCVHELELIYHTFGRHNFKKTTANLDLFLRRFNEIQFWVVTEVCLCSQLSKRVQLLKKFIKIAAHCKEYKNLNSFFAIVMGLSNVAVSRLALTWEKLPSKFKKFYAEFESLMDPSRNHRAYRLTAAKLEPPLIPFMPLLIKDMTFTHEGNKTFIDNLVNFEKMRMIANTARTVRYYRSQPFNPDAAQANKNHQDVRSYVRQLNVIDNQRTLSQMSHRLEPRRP
measurement-description: Epac activation assay, full length Epac2
Assay type: biochemical
Set-up: made in house
condition-parameters: Epac2^fl
property-label: AC50 (µM)
Return type: number; implicit unit µM.

Some solved entries appear below for comparison.
| compound | target-entity | AC50 (µM) |
| --- | --- | --- |
| Nc1ncnc2c1nc(Br)n2[C@@H]1O[C@@H]2COP(O)(=S)O[C@@H]2C1O (stereo partly drawn) | Epac2^fl (Mus musculus) | 8 |
| Nc1ncnc2c1nc(SCc1ccccc1)n2[C@@H]1O[C@@H]2CO[P@](O)(=S)O[C@H]2[C@H]1F | Epac2^fl (Mus musculus) | 15 |

Query: AC50; subject: COC1C2OP(=O)(O)OCC2OC1n1c(Sc2ccc(Cl)cc2)nc2c(N)ncnc21 [D-007, 8-pCPT-2′-O-Me-cAMP, reference compound]
16

----------
Listed here: items and their measured A (PKA activity).
target-entity: PKA-Iα (Homo sapiens)
Construct: made in house
Sequence (P10644 whole entry): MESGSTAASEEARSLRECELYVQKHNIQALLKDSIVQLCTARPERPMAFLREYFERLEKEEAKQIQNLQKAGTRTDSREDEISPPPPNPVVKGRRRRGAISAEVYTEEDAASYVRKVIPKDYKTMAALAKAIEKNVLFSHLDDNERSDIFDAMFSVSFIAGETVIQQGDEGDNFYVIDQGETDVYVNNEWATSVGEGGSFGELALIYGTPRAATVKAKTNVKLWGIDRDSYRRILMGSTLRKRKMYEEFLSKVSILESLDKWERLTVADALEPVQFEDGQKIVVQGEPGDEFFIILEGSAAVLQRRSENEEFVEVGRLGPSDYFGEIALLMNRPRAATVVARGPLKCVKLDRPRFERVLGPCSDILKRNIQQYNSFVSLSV
measurement-description: PKA activity assay (coupled spectrophotometric, Kemptide), PKA-Iα
Format: biochemical
condition-parameters: PKAIα; concentration 1.00E-05 μM
Return type: number; implicit unit U/mg.

| compound | target-entity | A (PKA activity) [U/mg] |
| --- | --- | --- |
| Nc1ncnc2c1ncn2[C@@H]1O[C@@H]2COP(=O)(O)O[C@H]2[C@H]1O [cAMP, reference compound] | PKA-Iα (Homo sapiens) | 2.9393 |

Query: A (PKA activity); subject: COC1C2OP(=O)(O)OCC2OC1n1c(Sc2ccc(Cl)cc2)nc2c(N)ncnc21 [D-007, 8-pCPT-2′-O-Me-cAMP, reference compound]
2.6923

Query: A (PKA activity); subject: Nc1ncnc2c1nc(SCc1ccccc1)n2[C@@H]1O[C@@H]2CO[P@](O)(=S)O[C@H]2[C@H]1O
3.6309

Query: A (PKA activity); subject: Cc1ccc(CSc2nc3c(N)ncnc3n2[C@@H]2O[C@@H]3CO[P@](O)(=S)O[C@H]3[C@H]2O)cc1
2.7664

----------
Listed here: items and their measured kobs.
target-entity: Epac2^fl (Mus musculus)
measurement-description: Epac activation assay, full length Epac2
Assay type: biochemical
Parameters: made in house
condition-parameters: 40 μM compound
Return type: number; implicit unit s⁻¹.

| compound | value-unit | observed-measurement |
| --- | --- | --- |
| Cc1ccc(CSc2nc3c(N)ncnc3n2[C@@H]2O[C@@H]3CO[P@](O)(=S)O[C@H]3[C@H]2O)cc1 | s⁻¹ | 0.000467 |

Under Epac2^fl (Mus musculus): kobs value of Nc1ncnc2c1nc(SCc1ccccc1)n2[C@@H]1O[C@@H]2CO[P@](O)(=S)O[C@H]2[C@H]1O ?
0.00152

Under Epac2^fl (Mus musculus): kobs value of COC1C2OP(=O)(O)OCC2OC1n1c(Sc2ccc(Cl)cc2)nc2c(N)ncnc21 [D-007, 8-pCPT-2′-O-Me-cAMP, reference compound] ?
7.51e-05

Under Epac2^fl (Mus musculus): kobs value of Nc1ncnc2c1ncn2[C@@H]1O[C@@H]2COP(=O)(O)O[C@H]2[C@H]1O [cAMP, reference compound] ?
0.000159

----------
target-entity: Epac2^Δ280 (Mus musculus)
Construct: made in house
measurement-description: Epac activation assay (Rap1B•mGDP fluorescence nucleotide exchange), Epac2^Δ280
Type: biochemical
condition-parameters: Epac2^Δ280
Listed here: items and their measured log10(AC50).
Would you kindly interpret these values as log10 of AC50 expressed in nM?

Some solved entries appear below for comparison.
| compound | observed-measurement |
| --- | --- |
| Nc1ncnc2c1nc(NCc1ccccc1)n2[C@@H]1O[C@@H]2COP(=O)(O)O[C@H]2[C@H]1O | 3.28 |
| Nc1ncnc2c1ncn2[C@@H]1O[C@@H]2COP(=O)(O)O[C@H]2[C@H]1N | 3.95 |
| Nc1ncnc2c1nc([Se]Cc1ccccc1)n2[C@@H]1O[C@@H]2COP(=O)(O)O[C@H]2[C@H]1O | 1.48 |

Query: log10(AC50); subject: CCNc1nc2c(N)ncnc2n1[C@@H]1O[C@@H]2CO[P@](O)(=S)O[C@H]2[C@H]1O
3.28

Query: log10(AC50); subject: CO[C@H]1C2OP(O)(=S)OC[C@H]2O[C@H]1n1c(Br)nc2c(N)ncnc21 (stereo partly shown)
4.11

Query: log10(AC50); subject: CCCCCCNc1nc2c(N)ncnc2n1[C@@H]1O[C@@H]2COP(=O)(O)OC2[C@@H]1O (stereo partly shown)
3.40

Query: log10(AC50); subject: Nc1ncnc2c1[nH]c(=O)n2C1OC2COP(=O)(O)OC2C1O (stereo not shown)
2.78

Sourced from paper PMC4300089
